Target: β1-adrenergic receptor (Homo sapiens (Human), UniProt P08588)
Sequence (P08588 whole entry, species assumed): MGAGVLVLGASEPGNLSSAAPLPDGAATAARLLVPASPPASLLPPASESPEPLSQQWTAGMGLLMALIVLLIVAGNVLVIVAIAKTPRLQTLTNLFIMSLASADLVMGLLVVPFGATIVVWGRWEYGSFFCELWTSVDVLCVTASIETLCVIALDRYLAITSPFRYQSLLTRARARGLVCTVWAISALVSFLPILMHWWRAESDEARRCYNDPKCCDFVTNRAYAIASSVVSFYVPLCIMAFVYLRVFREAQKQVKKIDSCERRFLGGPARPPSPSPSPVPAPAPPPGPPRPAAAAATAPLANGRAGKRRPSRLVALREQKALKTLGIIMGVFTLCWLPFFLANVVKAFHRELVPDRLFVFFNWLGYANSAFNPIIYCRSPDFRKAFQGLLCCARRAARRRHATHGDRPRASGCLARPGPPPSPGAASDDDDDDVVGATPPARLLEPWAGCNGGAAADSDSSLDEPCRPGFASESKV
Assay: cAMP Gs dynamic HTRF assay, β1 expressing CHO cells
Assay type: cell-based
Conditions: B1-AR; CHO-K cells; read-out: Average EC50 [Receptor subtype: B1-AR; Cell type: CHO-K]
pEC50: −log10 of the molar value.
valueKind: pEC50

For each listed entry, give its pEC50.
1. CC(C)c1cccc([C@H](O)CNC(C)(C)C)n1 [Compound 03-176]
2. O[C@H](CNC1CCC1)c1cccc(C(F)(F)F)n1 [Compound 03-34]
3. Cc1ccc([C@@H](O)CNC(C)(C)C)nc1C#N [Compound 03-8]

1: < 6.00; 2: < 6.00; 3: < 6.00

* * *

Target: UniProt P08588
Experiment: cAMP Gs dynamic HTRF assay, β1 expressing CHO cells
Format: cell-based
Settings: B1-AR; CHO-K1 (HitHunter)
valueKind: Average pEC50 [Receptor subtype: B1-AR; Cell type: CHO-K1 (HitHunter)]

# count of solved cases: 5
- CC(C)(C)NC[C@H](O)c1cccnc1N1CCCC1: D (D < 6)
- CC(C)(C)NC[C@H](O)c1cccnc1C1CCCC1: D (D < 6)
- CC(C)(COc1ccccc1)NC[C@@H](O)c1cccc(C(F)(F)F)n1: D (D < 6)
- CN1CCN(c2cccc([C@@H](O)CNC(C)(C)C)n2)CC1: D (D < 6)
- CC(C)(C)NC[C@@H](O)c1cccc(N2CCOCC2)n1: D (D < 6)

For each listed entry, give its Average pEC50 [Receptor subtype: B1-AR; Cell type: CHO-K1 (HitHunter)].
1. CC(C)(C)NC[C@H](O)c1cccc(C(N)=O)n1
2. CC(C)(C)NC[C@@H](O)c1cccc(-n2cccc2)n1
3. CC(C)(C)NC[C@@H](O)c1cccc(C#N)n1
4. CC(C)(C)NC[C@@H](O)c1cccc(C2CCC2)n1
5. CC(C)(C)NC[C@H](O)c1cncc(C(F)(F)F)n1
6. CC(C)(C)NC[C@@H](O)c1cccc(C(C)(F)F)n1
7. CC(C)(C)NC[C@H](O)c1cccc(-c2ccccc2Cl)n1
8. O[C@H](CNC1CCC1)c1cccc(C(F)(F)F)n1

1. D (D < 6)
2. C (C = <7-6)
3. D (D < 6)
4. D (D < 6)
5. C (C = <7-6)
6. D (D < 6)
7. C (C = <7-6)
8. D (D < 6)

For each listed entry, give its Average pEC50 [Receptor subtype: B1-AR; Cell type: CHO-K1 (HitHunter)].
1. CC(C)(C)NC[C@@H](O)c1cccc(-c2cccc(Cl)c2)n1
2. CC(C)Oc1ncccc1[C@@H](O)CNC(C)(C)C
3. CC(C)(C)NC[C@H](O)c1cccc(-c2ccc(Cl)cc2)n1

1: C (C = <7-6); 2: C (C = <7-6); 3: C (C = <7-6)

* * *

Assign pEC50 to each entry below.
Molecular target: UniProt P08588
Assay: cAMP Gs dynamic HTRF assay, β1 expressing CHO cells
Type: cell-based
Conditions: B1-AR; CHO-K cells; read-out: Average EC50 [Receptor subtype: B1-AR; Cell type: CHO-K]
pEC50: −log10 of the molar value.

* CC(C)(C)NC[C@H](O)c1cccc(-c2ccccc2Cl)n1 [Compound 03-133] | 6.00 to 7.00
* CC(C)(C)NC[C@H](O)c1cccc(-c2cccc(F)c2)n1 [Compound 03-131] | 7.00 to 8.00
* CCOc1ncccc1[C@@H](O)CNC(C)(C)C [Compound 03-58] | 7.00 to 8.00
* CC(C)(C)NC[C@H](O)c1ccc2ccccc2n1 [Compound 03-165] | > 8.00
* CC1(NC[C@H](O)c2cccc(C(F)(F)F)n2)CC1 [Compound 03-14] | 7.00 to 8.00

For each listed entry, give its pEC50.
1. CC(C)(C)NC[C@@H](O)c1cccc(C(C)(F)F)n1 [Compound 03-170]
2. CC1(NC[C@H](O)c2cccc(C(F)(F)F)n2)CCC1 [Compound 03-11]
3. CC(C)(C)NC[C@H](O)c1cccc(Br)n1 [Compound 03-32]
4. CC(C)(C)NC[C@H](O)c1cccnc1N1CCCC1 [Compound 03-60]

< 6.00
7.00 to 8.00
> 8.00
< 6.00

For each listed entry, give its pEC50.
1. CC(C)NC[C@H](O)c1cccc(C2CC2)n1 [Compound 03-10]
2. COc1ccc(CC(C)(C)NC[C@@H](O)c2cccc(C(F)(F)F)n2)cc1 [Compound 03-183]
3. CC(C)(C)NC[C@H](O)c1cccc(N2CC3CCCC3C2)n1 (some centres unmarked) [Compound 03-135]
4. CC(C)(C)NC[C@@H](O)c1cccc(-c2ccc(F)cc2)n1 [Compound 03-146]
5. CC(C)Oc1cccc([C@@H](O)CNC(C)(C)C)n1 [Compound 03-179]

1: 7.00 to 8.00; 2: < 6.00; 3: 6.00 to 7.00; 4: 6.00 to 7.00; 5: 6.00 to 7.00

For each listed entry, give its pEC50.
1. CC(C)(COc1ccccc1)NC[C@@H](O)c1cccc(C(F)(F)F)n1 [Compound 03-185]
2. CC(C)(C)NC[C@@H](O)c1cccc(C2CCOCC2)n1 [Compound 03-122]
3. CC(C)(C)NC[C@@H](O)c1cccc(OC(F)(F)F)n1 [Compound 03-186]
4. CC(C)(C)NC[C@@H](O)c1cccc(C(F)(F)F)n1 [Compound 03-43]
5. Cc1ccc(-c2cccc([C@@H](O)CNC(C)(C)C)n2)cc1 [Compound 03-143]
6. CNc1cccc([C@H](O)CNC(C)(C)C)n1 [Compound 03-142]
7. CC(C)(C)NC[C@@H](O)c1cccc(-c2cccc(F)c2)n1 [Compound 03-132]

1. < 6.00
2. < 6.00
3. < 6.00
4. < 6.00
5. < 6.00
6. < 6.00
7. < 6.00

For each listed entry, give its pEC50.
1. CC(C)(C)NC[C@@H](O)c1cccc(-c2cccc(Cl)c2)n1 [Compound 03-130]
2. Cc1ccc([C@H](O)CNC(C)(C)C)nc1 [Compound 03-128]

1: 6.00 to 7.00; 2: < 6.00
